target: Cry2 PHR (L348F)-p65AD-NLSx2 fusion construct as released from the TetR (I194T, 1-206)-CIB1 (-NLS)-T2A-Cry2 PHR (L348F)-p65AD-NLSx2 fusion construct; experiment: cell-based or functional assay
Sequence (Q96524 other isoform, or with tags, fused parts or gaps L348F I194T L348F L348F I194T L348F): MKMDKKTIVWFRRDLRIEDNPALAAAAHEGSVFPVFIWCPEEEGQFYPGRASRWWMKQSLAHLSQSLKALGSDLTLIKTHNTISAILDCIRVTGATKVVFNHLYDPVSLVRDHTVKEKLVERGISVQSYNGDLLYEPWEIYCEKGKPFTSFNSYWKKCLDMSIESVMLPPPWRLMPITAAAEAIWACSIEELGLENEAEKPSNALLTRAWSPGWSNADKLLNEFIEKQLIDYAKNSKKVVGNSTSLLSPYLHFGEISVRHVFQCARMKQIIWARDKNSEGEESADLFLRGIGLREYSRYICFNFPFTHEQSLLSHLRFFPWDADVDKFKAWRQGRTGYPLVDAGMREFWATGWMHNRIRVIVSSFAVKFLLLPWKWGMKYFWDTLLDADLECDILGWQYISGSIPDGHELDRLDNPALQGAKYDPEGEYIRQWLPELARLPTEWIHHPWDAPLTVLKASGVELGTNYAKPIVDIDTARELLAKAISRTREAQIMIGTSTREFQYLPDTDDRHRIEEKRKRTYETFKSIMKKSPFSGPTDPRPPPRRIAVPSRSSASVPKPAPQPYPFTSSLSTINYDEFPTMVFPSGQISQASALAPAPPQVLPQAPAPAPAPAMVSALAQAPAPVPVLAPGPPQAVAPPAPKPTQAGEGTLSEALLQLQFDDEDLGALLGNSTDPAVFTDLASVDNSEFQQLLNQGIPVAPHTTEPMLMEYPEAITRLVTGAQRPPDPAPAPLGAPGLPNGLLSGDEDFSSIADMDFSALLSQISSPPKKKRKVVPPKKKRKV
assayEndpoint: Light/Dark, Dox 75 ng/mL
Output: the number by itself.

Name the reported Light/Dark, Dox 75 ng/mL value associated with the binder rTetR (I194T, V16 mutation, 1-206)-CIB1 (-NLS) from the T2A construct (protein, part only; not given: Leftover T2A residues, part only) chain, part: MARLDKSKIINSALELLNGVGIEGLTTRKLAQKLGVEQPTLYWHVKNKRALLDALPIEMLDRHHTHSCPLEGESWQDFLRNNAKSYRCALLSHRDGAKVHLGTRPTEKQYETLENQLAFLCQQGFSLENALYALSAVGHFTLGCVLEEQEHQVAKEERETPTTDSMPPLLKQAIELFDRQGAEPAFLFGLELITCGLEKQLKCESGSPKKKHMEFNGAIGGDLLLNFPDMSVLERQRAHLKYLNPTFDSPLAGFFADSSMITGGEMDSYLSTAGLNLPMMYGETTVEGDSRLSISPETTLGTGNFKAAKFDTETKDCNEAAKKMTMNRDDLVEEGEEEKSKITEQNNGSTKSIKKMKHKAKKEENNFSNDSSKVTKELEKTDYI
26.4

Name the reported Light/Dark, Dox 75 ng/mL value associated with the binder rTetR (I194T, V10 mutation, 1-206)-CIB1 (-NLS) from the T2A construct (protein, part only; not given: Leftover T2A residues, part only) chain, part: MARLDKSKVINSALELLNGVGIEGLTTRKLAQKLGVEQPTLYWHVKNKRALLDALPIEMLDRHHTHSCPLEGESWQDFLRNNAKSYRCALLSHRDGAKVHLGTRPTEKQYETLENQLAFLCQQGFSLENALYALSAVGHFTLGCVLEEQEHQVAKEERETPTTDSMPPLLKQAIELFDRQGAEPAFLFGLELITCGLEKQLKCESGSPKKKHMEFNGAIGGDLLLNFPDMSVLERQRAHLKYLNPTFDSPLAGFFADSSMITGGEMDSYLSTAGLNLPMMYGETTVEGDSRLSISPETTLGTGNFKAAKFDTETKDCNEAAKKMTMNRDDLVEEGEEEKSKITEQNNGSTKSIKKMKHKAKKEENNFSNDSSKVTKELEKTDYI
42.7

Source: patent US20210340548A1
